# METHOD_SUMMARY: chemical genetic growth profiling, strain panel (AID 1159580);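 also: tested at 20 µM; growth read once vehicle control cultures reached saturation at 30 °C; lower values mean less growth of the strain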
# TEST_CONDITIONS: S. cerevisiae deletion strains, growth OD, locus YJR075W, strain HOC1
About 2,000 (36%) of roughly 5,500 compounds were called active. Inconclusive results (about 18%) are left out. Rule as the data show it: active = normalized growth mostly below about 0.91 (no sharp cut-off); inconclusive = no clear call, values can overlap the other calls; inactive = mostly above about 0.92. This is one part of the list.
Reply using exactly one outcome from active, inactive

// query Field: outcome | Entry: CC1=CC(=O)C2C(C)(C)CCC[C@]2(C)[C@@]1(O)CCc1ccoc1 (stereo partly specified)
// result inactive

// query Hello, I am checking results. What call was entered for NC(N)=Nc1ccc(Cl)cc1 ?
// result inactive

// query I'd appreciate the recorded outcome for CO[C@H]1[C@H](O)[C@@H](O[C@H]2CC[C@]3(C=O)C4CC[C@]5(C)[C@@H](C6=CC(=O)OC6)CC[C@]5(O)C4CC[C@@H]3C2)O[C@@H](C)[C@@H]1O (stereo partly specified) from this test.
// result inactive

// query Hey, what did the test say about CC(=O)OC1CC[C@@]2(C)C(CCC3C2CC[C@]2(C)C(C4=CC(=O)OC4)C(OC(C)=O)CC32O)C1 (stereo partly specified) ?
// result inactive

// query Which outcome was assigned to CCn1nc(C(=O)O)c(=O)c2cc3c(cc21)OCO3 in this test?
// result inactive

// query Give the logged outcome of this assay for the following compound: N#Cc1c(Cl)cccc1N1CCC(C(=O)NC(=O)Nc2ccc(Cl)cc2)CC1
// result inactive

// query For this compound, state the assay outcome: CC1(C)C(O)CC(=O)C2(C)C1CC(O)C1(C)C2CCC2(C)C(c3ccoc3)OC(=O)C3OC321 (stereo unspecified)
// result inactive

// query // outcome(item) with item = O=C(NC1CCCCC1)N1CCN(c2ncccc2C(F)(F)F)CC1
// result inactive

// query Would you mind telling me which call this test gave CC1(C)O[C@@H]2CC3C4C[C@H](F)C5=CC(=O)CC[C@]5(C)C4[C@@H](O)C[C@]3(C)[C@]2(C(=O)CO)O1 (stereo partly specified) ?
// result inactive

// query Dear all, I need the recorded test outcome for NC(=O)c1cc([N+](=O)[O-])cc([N+](=O)[O-])c1 , thank you.
// result inactive

// query Can you look up the reported call for CCOC(=O)c1nnc2cc(C)nn2c1C for me?
// result inactive

// query Dear colleague, could you share the recorded outcome for COc1ccccc1N1CCN(CCN(C(=O)C2CCCCC2)c2ccccn2)CC1 when you have a moment?
// result inactive

// query Check the results log: what was the call for O=C(O)CCc1nc(-c2ccccc2)c(-c2ccccc2)o1 ?
// result active

// query Please let me know the test result on file for N#Cc1c(Cl)cccc1N1CCCC1 .
// result active

// query Answer briefly: the call reported for C[C@@H]1O[C@@H](O[C@H]2CC[C@]3(C=O)C4CC[C@]5(C)[C@@H](C6=CC(=O)OC6)CC[C@]5(O)C4CC[C@]3(O)C2)[C@H](O)[C@H](O)[C@H]1O (stereo partly specified) in this assay.
// result inactive

// query Per the assay record, what outcome was assigned to CC(C)(C)C1=CC(=O)C=C(C(C)(C)C)C1=O ?
// result inactive

// query Status in this test for O=C(Nc1ccc(Cl)cc1)N1CCN(c2ncccc2C(F)(F)F)CC1 ?
// result inactive

// query Status in this test for N#Cc1c(Cl)cccc1Cl ?
// result inactive

// query What is the recorded call for this compound in the test? COc1ccccc1N1CCN(CCCCN2C(=O)c3ccccc3C2=O)CC1
// result inactive

// query # outcome recorded in this test, key = COc1ccccc1N1CCN(C(=O)C(C)Nc2ccccn2)CC1 (stereo unspecified)
// result inactive

// query Each compound tested received a call. Report the one for COc1ccccc1N1CCN(CCCNc2cc(=O)n(C)c(=O)n2C)CC1 .
// result inactive
